# system: T1, human DLL4 extracellular domain (human, UniProt Q9NR61 27-529)
# T1 construct: purified recombinant ECD; biotin-labelled or 6xHis-tagged depending on the assay; also called huDLL4 ECD; hu DLL4 ECD
# T1 sequence (Q9NR61 27-529 limits assumed): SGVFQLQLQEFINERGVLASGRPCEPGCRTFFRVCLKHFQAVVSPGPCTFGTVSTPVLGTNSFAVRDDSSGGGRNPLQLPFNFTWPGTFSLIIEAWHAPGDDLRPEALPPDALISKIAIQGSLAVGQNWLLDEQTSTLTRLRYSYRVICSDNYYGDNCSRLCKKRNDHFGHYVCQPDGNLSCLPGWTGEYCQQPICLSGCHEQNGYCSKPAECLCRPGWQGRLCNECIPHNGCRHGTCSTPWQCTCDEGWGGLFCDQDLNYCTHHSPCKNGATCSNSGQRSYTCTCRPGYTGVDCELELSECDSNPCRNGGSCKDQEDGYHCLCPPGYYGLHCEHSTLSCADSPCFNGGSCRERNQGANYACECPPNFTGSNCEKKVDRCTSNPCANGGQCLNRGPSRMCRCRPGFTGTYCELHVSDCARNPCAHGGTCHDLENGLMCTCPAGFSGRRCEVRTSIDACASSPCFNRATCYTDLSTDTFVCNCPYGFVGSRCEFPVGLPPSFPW
# test name: SPR (Biacore)
# Method: Binding of DLL4 antibodies to a purified recombinant DLL4 extracellular domain (ECD) was determined by surface plasmon resonance-based measurements with a Biacore® instrument (either a Biacore 2000, Biacore 3000, or Biacore T100; GE Healthcare, Piscataway, N.J., US) using running buffer HBS-EPB (10 mM HEPES [pH 7.4], 150 mM NaCl, 3 mM EDTA, 0.1 mg/ml BSA and 0.005% surfactant P20) at 25° C. […] Binding was recorded as a function of time and kinetic rate constants were calculated. […]
A collection of binders and their measured pKd
The meaning of pKd here: minus log10 of the concentration in molar units.

h38H12.9 (antibody, V domains shown, humanized IgG; also called VH.1b/VL.1 38H12) VH: EVQLVESGGGVVQPGRSLRLSCAASGFTFSNYGMYWVRQAPGKGLEWVAFISHGGGITYYRDSVKGRFTISRDNSKNTLYLQMNSLRAEDTAVYYCAALNWELGIDYWGQGTMVTVSS VL: DIQMTQSPSSLSASVGDRVTITCRASEDIYSNLAWYQQKPGKAPKLLIYAANRLQDGVPSRFSGSGSGTDFTLTISSLQPEDFATYYCLQGSKFPLTFGQGTKLEIKR
9.01
h38H12.12 (antibody, V domains shown, humanized IgG; also called VH.1b/VL.2a 38H12) VH: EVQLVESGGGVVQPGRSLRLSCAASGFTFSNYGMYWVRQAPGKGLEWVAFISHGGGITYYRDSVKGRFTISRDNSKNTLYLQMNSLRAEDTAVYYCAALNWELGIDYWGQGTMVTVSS VL: EIVMTQSPATLSVSPGERATLSCRASEDIYSNLAWYQKKPGQSPRLLIYAANRLQDGVPARFSGSGSGTEYTLTISSLQSEDFAVYFCLQGSKFPLTFGQGTKLEIKR
9.09
h38H12.5 (antibody, V domains shown, humanized IgG; also called VH.1a/VL.1 38H12) VH: EVQLVESGGGVVQPGRSLRLSCAASGFTFSNYGMYWIRQAPGKGLEWVAFISHGGGITYYRDSVKGRFTISRDNSKSTLYLQMNSLRAEDTAVYHCAALNWELGIDYWGQGTMVTVSS VL: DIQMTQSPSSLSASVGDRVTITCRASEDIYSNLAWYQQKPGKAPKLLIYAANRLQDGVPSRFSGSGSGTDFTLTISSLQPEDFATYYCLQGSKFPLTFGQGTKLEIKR
9.40

As a next step, examine the binder that follows.
Returns the measured pKd for the input binder. Input: h38H12.6 (antibody, V domains shown, humanized IgG; also called VH.1a/VL.1a 38H12) VH: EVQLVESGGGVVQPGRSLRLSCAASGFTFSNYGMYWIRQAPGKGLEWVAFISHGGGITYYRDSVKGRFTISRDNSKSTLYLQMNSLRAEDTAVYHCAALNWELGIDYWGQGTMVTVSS VL: DIQMTQSPSSLSASVGDRVTITCRASEDIYSNLAWYQKKPGKSPKLLIYAANRLQDGVPSRFSGSGSGTDYTLTISSLQPEDFATYFCLQGSKFPLTFGQGTKLEIKR
9.36
